The reader will find reported Percent Effect values listed item by item below.
System: Wolbachia pipientis
test-description: Anti-Wolbachia Cell-Based Screen
Format: functional
Set-up: scale not given: in the data most compounds retested in dose-response had high values
study-conditions: 5 µM
Out of some 48,000 compounds screened, about 13,000 (27%) showed an effect of 50% or more. The list shows a part of the results.

- compound: "O=C(NCc1cc2n(n1)CCCNC2)c1cn2cc(Cl)ccc2n1"
  Percent Effect, %: -5.425
- compound: "Cc1nnsc1C(=O)N1CCN(CC2CC2)[C@@H]2CS(=O)(=O)C[C@@H]21"
  Percent Effect, %: 2.438
- compound: "CN1CCCC[C@@H]2[C@H]1[C@@H](c1ccccc1)CCN2C(=O)c1ccncc1"
  Percent Effect, %: 88.59
- compound: "CN1CCCC[C@@H]2[C@H]1[C@@H](c1ccccc1)CCN2C(=O)c1cccnc1"
  Percent Effect, %: 94.07
- compound: "Cc1ncsc1CCC(=O)NCc1cc2n(n1)CCNC2"
  Percent Effect, %: -3.955
- compound: "CCOCCOC(C)C(=O)Nc1nccn1Cc1ccccc1 (configuration not stated)"
  Percent Effect, %: -11.15
- compound: "O=C(NCc1csc2ccc(Cl)cc12)c1cc2n(n1)CCNC2"
  Percent Effect, %: 87.95
- compound: "COc1cccc2c1OCC(C(=O)N1CCN(CCS(C)(=O)=O)CC1)C2 (configuration not stated)"
  Percent Effect, %: -9.844
- compound: "O=C(NCc1sc2ccccc2c1Cl)c1cc2n(n1)CCNC2"
  Percent Effect, %: 92.76
- compound: "CC(C)N1CCCn2nc(C(=O)NCCc3ccccn3)cc2C1"
  Percent Effect, %: -11.55
- compound: "O=C(c1cccnc1)N1CCCC1C1CCN(Cc2ccccc2)CC1 (configuration not stated)"
  Percent Effect, %: -39.09
- compound: "O=C(NCc1cc2n(n1)CCCNC2)C1(c2ccc(Cl)cc2)CCC1"
  Percent Effect, %: 14.56
- compound: "CC(=O)NC(C(=O)N(C)Cc1nnc2n1CCC2)C(C)C (configuration not stated)"
  Percent Effect, %: 2.941
- compound: "O=C(NCCn1ccnc1-c1cc2n(n1)CCNC2)c1ccncc1"
  Percent Effect, %: -6.247
- compound: "Cc1nnsc1C(=O)N1CC[C@H](c2ccccc2)[C@@H]2[C@H]1CCCCN2C"
  Percent Effect, %: 109
- compound: "COc1ncnc(N(C)C)c1NC(=O)c1cscc1C"
  Percent Effect, %: -1.164
- compound: "CNC(=O)[C@@H]1C[C@@H](N)CN1C(=O)CCSCc1ccc(F)cc1"
  Percent Effect, %: -13.45
- compound: "O=C(c1cccc(O)c1)N1C[C@@H](CN2CCCCC2)[C@@H](CO)C1"
  Percent Effect, %: 36.38
- compound: "Fc1ccc(CNCc2cc(Br)c3c(c2)OCO3)cc1"
  Percent Effect, %: -17.14
- compound: "CN1CCCC[C@@H]2[C@H]1[C@@H](c1ccccc1)CCN2C(=O)c1ccccc1"
  Percent Effect, %: -7.424
- compound: "O=C(c1ccncc1)N1CCCC1C1CCN(Cc2ccccc2)CC1 (configuration not stated)"
  Percent Effect, %: -37.72
- compound: "CC(C)=CCN1CCN(C(=O)c2snnc2C)[C@H]2CS(=O)(=O)C[C@H]21"
  Percent Effect, %: -1.087

###

The reader will find reported Percent Effect values listed item by item below.
Tested on: Wolbachia pipientis
test-description: Anti-Wolbachia Cell-Based Screen
Format: functional
Design: scale not given: in the data most compounds retested in dose-response had high values
study-conditions: 5 µM
Among all 48,000 compounds or so, about 13,000 (27%) showed an effect of 50% or more. Some of the results follow.

- compound: "O=C(N1CCOCC1)N1CCc2ncnc(NC3CCC3)c2CC1.O=C(O)C(F)(F)F"
  tested-system: "Wolbachia pipientis"
  unit: "%"
  Percent Effect: 91.29
- compound: "CCn1c(C)nnc1SCCNC(=O)c1cnc(N(C)C)nc1C"
  tested-system: "Wolbachia pipientis"
  unit: "%"
  Percent Effect: -11.93
- compound: "O=C(C1CCCO1)N1CCc2ncnc(NC3CCC3)c2CC1.O=C(O)C(F)(F)F (stereo unspecified)"
  tested-system: "Wolbachia pipientis"
  unit: "%"
  Percent Effect: 103.9
- compound: "CCOc1cccc2c1OCC(=O)N(c1ccc3c(c1)OCO3)C2"
  tested-system: "Wolbachia pipientis"
  unit: "%"
  Percent Effect: 112.1
- compound: "CCC(NC(=O)c1cnc(N(C)C)nc1C)c1ccncc1 (stereo unspecified)"
  tested-system: "Wolbachia pipientis"
  unit: "%"
  Percent Effect: -21.92
- compound: "CCOc1cccc2c1OCC(=O)N(c1ccc3c(c1)OCCO3)C2"
  tested-system: "Wolbachia pipientis"
  unit: "%"
  Percent Effect: 123.7
- compound: "CCCn1cc(C(=O)N[C@H]2CC[C@H](n3cnnc3)CC2)c(C)n1"
  tested-system: "Wolbachia pipientis"
  unit: "%"
  Percent Effect: -5.85
- compound: "CCOc1ccccc1C(=O)NS(=O)(=O)c1ccc2c(c1)OCCCO2"
  tested-system: "Wolbachia pipientis"
  unit: "%"
  Percent Effect: -4.596
- compound: "CCn1nc(C)c(C(C)NC(=O)c2cnc(N(C)C)nc2C)c1C (stereo unspecified)"
  tested-system: "Wolbachia pipientis"
  unit: "%"
  Percent Effect: 101.2
- compound: "CCOc1cccc2c1OCC(C(=O)NC(C)Cn1cccn1)=C2 (stereo unspecified)"
  tested-system: "Wolbachia pipientis"
  unit: "%"
  Percent Effect: -1.745
- compound: "CCOc1cccc2c1OCC(=O)N(c1ccc(N(C)C)cc1)C2"
  tested-system: "Wolbachia pipientis"
  unit: "%"
  Percent Effect: 138.3

###

System: Wolbachia pipientis
test-description: Anti-Wolbachia Cell-Based Screen
Type: functional
Design: scale not given: in the data most compounds retested in dose-response had high values
study-conditions: 5 µM
About 13,000 (27%) of roughly 48,000 compounds showed an effect of 50% or more. This is one part of the list.

- compound: "Cc1ccc(C(=O)NS(C)(=O)=O)cc1I"
  Percent Effect: "-7.571%"
- compound: "COc1cc(NC(=O)N(C)C(C2CC2)C2CC2)ncn1"
  Percent Effect: "-1.888%"
- compound: "CCN1CCN(C(=O)C(C)N2CCN(Cc3nccn3C)CC2)CC1 (stereo unspecified)"
  Percent Effect: "0.1033%"
- compound: "COCCNC(=O)[C@@H]1CC[C@@H]2[C@@H](CCN2c2ncc(F)cn2)O1.O=C(O)C(F)(F)F"
  Percent Effect: "-10.3%"
- compound: "CC(C(=O)N1CCOCC1)N1CCN(Cc2nccn2C)CC1 (stereo unspecified)"
  Percent Effect: "114%"
- compound: "COCCNC(=O)[C@@H]1C[C@H]2[C@H](CCN2c2cc(OC)ncn2)O1"
  Percent Effect: "102.9%"
- compound: "CC(C)C(C(=O)N1CCCN(Cc2nccn2C)CC1)N1CCCC1 (stereo unspecified)"
  Percent Effect: "74.16%"
- compound: "COc1cc(NC(=O)N(C)CCC2CC2)ncn1"
  Percent Effect: "6.653%"
- compound: "O=C1CN(Cc2cn(CC3CCCN(C4CCSCC4)C3)nn2)CCN1 (stereo unspecified)"
  Percent Effect: "-21.26%"
- compound: "Cn1ccnc1CN1CCCN(C(=O)C2(C#N)CCCCC2)CC1"
  Percent Effect: "-11.9%"
- compound: "CC(=O)NCCNC(=O)c1cnc(-c2ccccc2)nc1"
  Percent Effect: "-5.417%"

###

The reader will find reported Percent Effect values listed item by item below.
Test system: Wolbachia pipientis
test-description: Anti-Wolbachia Cell-Based Screen
Type: functional
Parameters: scale not given: in the data most compounds retested in dose-response had high values
study-conditions: 5 µM
About 13,000 (27%) of roughly 48,000 compounds showed an effect of 50% or more. Some of the results follow.

- compound: "NC(=O)c1ccc(OCCCN2CCC3(CC2)OCCCC3O)cc1 (configuration not stated)"
  Percent Effect (%): 101.3
- compound: "CN(Cc1cn2c(n1)CN(C(N)=O)CC2)Cc1ccco1"
  Percent Effect (%): 9.855
- compound: "Cc1cc(C2CCC2)nc(N2CCC3(CC2)OCCCC3O)n1 (configuration not stated)"
  Percent Effect (%): -2.811
- compound: "COc1cccc(CNC(=O)c2cccnc2SC(C)C)c1"
  Percent Effect (%): 92.51
- compound: "COc1ccnc(NC(=O)CSCc2cccnc2)c1"
  Percent Effect (%): 1.726
- compound: "CCOc1ncccc1C(=O)N1CCCC(c2nncn2C)C1 (configuration not stated)"
  Percent Effect (%): 139.9
- compound: "Cc1noc(C2CCCN(C(=O)c3cc(Cl)ccc3F)C2)n1 (configuration not stated)"
  Percent Effect (%): -1.909
- compound: "COc1ccccc1S(=O)(=O)N1CCC2(CC1)OCCCC2O (configuration not stated)"
  Percent Effect (%): 6.351
- compound: "COC1CCN(C(=O)c2cc(-c3ccc(Cl)cc3)on2)CC1"
  Percent Effect (%): 1.194
- compound: "Cc1noc(C2CCCN(C(=O)c3cc(-c4ccccc4)on3)C2)n1 (configuration not stated)"
  Percent Effect (%): 95.63
- compound: "CCOc1ncccc1C(=O)N1CCCC(c2nccn2CCOC)C1 (configuration not stated)"
  Percent Effect (%): -5.342
- compound: "Cc1noc(C2CCCN(C(=O)c3cc(Cl)cn3C)C2)n1 (configuration not stated)"
  Percent Effect (%): -4.017

Cited source: ChEMBL document CHEMBL3988442
